Please go through the items and note down their shrunken log2 fold change.
test system: Escherichia coli TOP10; test: shrunken log2 fold change of peptide-encoding DNA abundance (4.5 h post-induction vs induction); higher = less antimicrobial activity (less host growth inhibition); conditions: time post-induction: 4.5 h; library: site-saturation at positions 5, 18, 19, 20
# output: bare number, no unit

stdin: Which shrunken log2 fold change is reported for this sequence? RRIRVRPPRLPRPRPRPIYNPRP
stdout: -0.675

stdin: Which shrunken log2 fold change is reported for this sequence? RRIRFRPPRLPRPRPRPEFYPRP
stdout: 0.0551

stdin: Which shrunken log2 fold change is reported for this sequence? RRIRQRPPRLPRPRPRPGRQPRP
stdout: 0.021

stdin: Which shrunken log2 fold change is reported for this sequence? RRIRCRPPRLPRPRPRPTPVPRP
stdout: 0.714

stdin: Which shrunken log2 fold change is reported for this sequence? RRIRQRPPRLPRPRPRPETVPRP
stdout: -0.0886

stdin: Which shrunken log2 fold change is reported for this sequence? RRIRRRPPRLPRPRPRPKGLPRP
stdout: 0.238

stdin: Which shrunken log2 fold change is reported for this sequence? RRIRQRPPRLPRPRPRPKVFPRP
stdout: -0.00192

stdin: Which shrunken log2 fold change is reported for this sequence? RRIRGRPPRLPRPRPRPSWPPRP
stdout: 0.384

stdin: Which shrunken log2 fold change is reported for this sequence? RRIRPRPPRLPRPRPRPFKTPRP
stdout: -0.199

stdin: Which shrunken log2 fold change is reported for this sequence? RRIRLRPPRLPRPRPRPHYEPRP
stdout: -0.762

stdin: Which shrunken log2 fold change is reported for this sequence? RRIRNRPPRLPRPRPRPMCIPRP
stdout: -0.0106

stdin: Which shrunken log2 fold change is reported for this sequence? RRIRHRPPRLPRPRPRPNFYPRP
stdout: -0.515

stdin: Which shrunken log2 fold change is reported for this sequence? RRIRCRPPRLPRPRPRPHPQPRP
stdout: 0.266

stdin: Which shrunken log2 fold change is reported for this sequence? RRIRPRPPRLPRPRPRPSDSPRP
stdout: -0.361

stdin: Which shrunken log2 fold change is reported for this sequence? RRIRNRPPRLPRPRPRPIECPRP
stdout: 0.0138

stdin: Which shrunken log2 fold change is reported for this sequence? RRIRSRPPRLPRPRPRPLWSPRP
stdout: -0.0384

stdin: Which shrunken log2 fold change is reported for this sequence? RRIRTRPPRLPRPRPRPPGLPRP
stdout: 1.11

stdin: Which shrunken log2 fold change is reported for this sequence? RRIRMRPPRLPRPRPRPKEQPRP
stdout: 1.26

stdin: Which shrunken log2 fold change is reported for this sequence? RRIRFRPPRLPRPRPRPRQTPRP
stdout: -0.0912

stdin: Which shrunken log2 fold change is reported for this sequence? RRIRLRPPRLPRPRPRPEAWPRP
stdout: 0.0169

stdin: Which shrunken log2 fold change is reported for this sequence? RRIRTRPPRLPRPRPRPEATPRP
stdout: 1.05

stdin: Which shrunken log2 fold change is reported for this sequence? RRIRARPPRLPRPRPRPCHRPRP
stdout: 0.0386

stdin: Which shrunken log2 fold change is reported for this sequence? RRIRSRPPRLPRPRPRPSYEPRP
stdout: -0.426

stdin: Which shrunken log2 fold change is reported for this sequence? RRIRIRPPRLPRPRPRPRFVPRP
stdout: -0.104

stdin: Which shrunken log2 fold change is reported for this sequence? RRIRQRPPRLPRPRPRPPVSPRP
stdout: -0.203

stdin: Which shrunken log2 fold change is reported for this sequence? RRIRVRPPRLPRPRPRPGLHPRP
stdout: -0.0936

stdin: Which shrunken log2 fold change is reported for this sequence? RRIRDRPPRLPRPRPRPRMLPRP
stdout: 0.229

stdin: Which shrunken log2 fold change is reported for this sequence? RRIRWRPPRLPRPRPRPFTGPRP
stdout: 0.0256

stdin: Which shrunken log2 fold change is reported for this sequence? RRIRDRPPRLPRPRPRPSAMPRP
stdout: 0.36

stdin: Which shrunken log2 fold change is reported for this sequence? RRIRLRPPRLPRPRPRPEYHPRP
stdout: 0.0779

stdin: Which shrunken log2 fold change is reported for this sequence? RRIRWRPPRLPRPRPRPDIRPRP
stdout: -0.0808

stdin: Which shrunken log2 fold change is reported for this sequence? RRIRGRPPRLPRPRPRPISSPRP
stdout: 0.393

stdin: Which shrunken log2 fold change is reported for this sequence? RRIRNRPPRLPRPRPRPIMYPRP
stdout: -0.309

stdin: Which shrunken log2 fold change is reported for this sequence? RRIRARPPRLPRPRPRPVHIPRP
stdout: -0.177

stdin: Which shrunken log2 fold change is reported for this sequence? RRIRTRPPRLPRPRPRPAVPPRP
stdout: 0.0514

stdin: Which shrunken log2 fold change is reported for this sequence? RRIRHRPPRLPRPRPRPYCRPRP
stdout: -0.0455

stdin: Which shrunken log2 fold change is reported for this sequence? RRIRERPPRLPRPRPRPQDQPRP
stdout: 0.0272

stdin: Which shrunken log2 fold change is reported for this sequence? RRIRPRPPRLPRPRPRPSSGPRP
stdout: -0.494

stdin: Which shrunken log2 fold change is reported for this sequence? RRIRWRPPRLPRPRPRPFCYPRP
stdout: -0.418

stdin: Which shrunken log2 fold change is reported for this sequence? RRIRGRPPRLPRPRPRPDYTPRP
stdout: 0.343

stdin: Which shrunken log2 fold change is reported for this sequence? RRIRVRPPRLPRPRPRPDSMPRP
stdout: -0.103

stdin: Which shrunken log2 fold change is reported for this sequence? RRIRQRPPRLPRPRPRPENCPRP
stdout: -0.219

stdin: Which shrunken log2 fold change is reported for this sequence? RRIRRRPPRLPRPRPRPFKMPRP
stdout: -0.124

stdin: Which shrunken log2 fold change is reported for this sequence? RRIRARPPRLPRPRPRPSYFPRP
stdout: -0.555

stdin: Which shrunken log2 fold change is reported for this sequence? RRIRFRPPRLPRPRPRPQMRPRP
stdout: 0.495

stdin: Which shrunken log2 fold change is reported for this sequence? RRIRRRPPRLPRPRPRPSPNPRP
stdout: 0.396

stdin: Which shrunken log2 fold change is reported for this sequence? RRIRDRPPRLPRPRPRPGNHPRP
stdout: 0.0062

stdin: Which shrunken log2 fold change is reported for this sequence? RRIRERPPRLPRPRPRPTVNPRP
stdout: -0.129

stdin: Which shrunken log2 fold change is reported for this sequence? RRIRQRPPRLPRPRPRPRALPRP
stdout: 0.125

stdin: Which shrunken log2 fold change is reported for this sequence? RRIRHRPPRLPRPRPRPYKLPRP
stdout: -0.611

stdin: Which shrunken log2 fold change is reported for this sequence? RRIRCRPPRLPRPRPRPDSAPRP
stdout: -0.181

stdin: Which shrunken log2 fold change is reported for this sequence? RRIRKRPPRLPRPRPRPQYSPRP
stdout: -0.906

stdin: Which shrunken log2 fold change is reported for this sequence? RRIRARPPRLPRPRPRPVCDPRP
stdout: 0.992

stdin: Which shrunken log2 fold change is reported for this sequence? RRIRDRPPRLPRPRPRPIHTPRP
stdout: -0.159

stdin: Which shrunken log2 fold change is reported for this sequence? RRIRRRPPRLPRPRPRPDKKPRP
stdout: 0.0135

stdin: Which shrunken log2 fold change is reported for this sequence? RRIRVRPPRLPRPRPRPFCHPRP
stdout: -0.264

stdin: Which shrunken log2 fold change is reported for this sequence? RRIRVRPPRLPRPRPRPRTHPRP
stdout: 0.199

stdin: Which shrunken log2 fold change is reported for this sequence? RRIRFRPPRLPRPRPRPCMEPRP
stdout: -0.105

stdin: Which shrunken log2 fold change is reported for this sequence? RRIRQRPPRLPRPRPRPYCPPRP
stdout: -0.422

stdin: Which shrunken log2 fold change is reported for this sequence? RRIRWRPPRLPRPRPRPRFHPRP
stdout: -0.293

stdin: Which shrunken log2 fold change is reported for this sequence? RRIRPRPPRLPRPRPRPFMRPRP
stdout: -0.1

stdin: Which shrunken log2 fold change is reported for this sequence? RRIRRRPPRLPRPRPRPDPTPRP
stdout: 0.77

stdin: Which shrunken log2 fold change is reported for this sequence? RRIRARPPRLPRPRPRPEEHPRP
stdout: -0.0106

* * *

system: Escherichia coli TOP10; experiment: shrunken log2 fold change of peptide-encoding DNA abundance (4.5 h post-induction vs induction); higher = less antimicrobial activity (less host growth inhibition); details: time post-induction: 4.5 h; library: site-saturation at positions 5, 18, 19, 20;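 note: peptides expressed intracellularly from a pBAD plasmid library in pooled LB shake-flask culture, induced with 0.3% L-arabinose, DNA abundance read by NGS, three biological replicates, DESeq2 with apeglm shrinkage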
Outcome: 1 (yes) for shrunken log2 fold change of at least -0.02; 0 (no) for anything lower.

stdin: Answer whether shrunken log2 fold change of RRIRYRPPRLPRPRPRPGSDPRP is greater than or equal to -0.02.
stdout: 0 (no)

stdin: Answer whether shrunken log2 fold change of RRIRLRPPRLPRPRPRPWIRPRP is greater than or equal to -0.02.
stdout: 0 (no)

stdin: Answer whether shrunken log2 fold change of RRIRHRPPRLPRPRPRPIFAPRP is greater than or equal to -0.02.
stdout: 1 (yes)

stdin: Answer whether shrunken log2 fold change of RRIRARPPRLPRPRPRPYLKPRP is greater than or equal to -0.02.
stdout: 0 (no)

stdin: Answer whether shrunken log2 fold change of RRIRARPPRLPRPRPRPHCNPRP is greater than or equal to -0.02.
stdout: 1 (yes)

stdin: Answer whether shrunken log2 fold change of RRIRMRPPRLPRPRPRPYFRPRP is greater than or equal to -0.02.
stdout: 0 (no)

stdin: Answer whether shrunken log2 fold change of RRIRRRPPRLPRPRPRPGNLPRP is greater than or equal to -0.02.
stdout: 1 (yes)

stdin: Answer whether shrunken log2 fold change of RRIRERPPRLPRPRPRPKVMPRP is greater than or equal to -0.02.
stdout: 1 (yes)
